Tested on: 786-0
assay explanation: NCI tumour cell line growth inhibition, 48 h
Calls of active or inactive are those of the source. No stated cut-off is given here; in the data, active = GI50 up to about 1.1 µM and inactive = higher. Where a SMILES comes first, the peptide text is derived from it. [ ]: non-standard residue; d: D form. The star is where a group is joined. Phe(2-OMe) = COc1ccccc1C[CH](N)C(=O)O; Cbz = O=C(OCc1ccccc1)*; OBn = c1ccc(CO*)cc1
Outcomes: t = active, f = inactive

{"columns": ["compound", "system under test", "label value"],
 "data": [
  ["N=C(N)NCCCC(NC(=O)c1cccc2c(=O)c3ccccc3[nH]c12)C(=O)O (stereo not drawn)", "786-0", "f"],
  ["CNCCCNC1(c2cc3ccccc3s2)CCCCC1", "786-0", "f"],
  ["COc1ccc2nccc(NCCCN3CCN(CCCNc4ccnc5ccc(OC)cc45)CC3)c2c1", "786-0", "t"],
  ["Clc1nc(NCCc2ccccc2)c2ncn(-c3ccccc3)c2n1", "786-0", "f"],
  ["N#CCCN(CCC#N)c1ccc(/C=C2\\SC(=S)NC2=O)cc1Br", "786-0", "f"],
  ["Cc1ccccc1NC(=O)C(=O)Cc1cnc2ccccc2n1", "786-0", "f"],
  ["CN(C)c1ccc(/C=N/NC(=O)c2cnc3ccccc3c2)cc1", "786-0", "f"],
  ["COc1cccc2c1C(=O)c1c(O)c3c(c(O)c1C2=O)C[C@@](O)(C(C)=O)CC3OC1CC(OC2CC(N)C(O)C(C)O2)C(O)C(C)O1 (stereo partly drawn)", "786-0", "f"],
  ["CN(C)C(=O)C1CCN(Cc2c[nH]c3ccccc23)CC1", "786-0", "f"],
  ["COC(=O)C1=C(O)C(C(=O)OC)[C@@]2(O)[C@@H](C(=O)OC)C(c3ccc(OC(=O)/C(=C/c4ccc(Cl)cc4)c4ccc(Cl)cc4)cc3)C[C@@H]1[C@@H]2C(=O)OC (stereo partly drawn)", "786-0", "f"],
  ["N=C(N)C(/N=N\\c1ccccc1)C(=N)N (stereo not drawn)", "786-0", "f"],
  ["Cc1ccc(S(=O)(=O)N2CCC[C@@H]2C(=O)O[C@@H]2CCC3CC=CC32)cc1 (stereo partly drawn)", "786-0", "f"],
  ["COC(=O)/C(C#N)=C1\\NN=NN1c1ccc(OC)cc1", "786-0", "f"],
  ["CO/C=C(/C(=O)OC)c1ccccc1COc1cccc(C(F)(F)F)c1", "786-0", "f"],
  ["CNC1C(O)CC(OC2C/C=C(\\C)C/C(C)=C/C=C/CCC(C)CNC(=O)/C=C/C=C/C2C)OC1C (stereo not drawn)", "786-0", "t"],
  ["COc1ccc(OC)c([N+](=O)[O-])c1-c1nc2sc(C)cn2c1/C=N/N=C(N)N", "786-0", "f"],
  ["O=[N+]([O-])c1ccc(C2Nn3c(nnc3-c3cccc([N+](=O)[O-])c3)S2)cc1 (stereo not drawn)", "786-0", "f"],
  ["COC1CC(OC)C(O)C(CO)O1 (stereo not drawn)", "786-0", "f"],
  ["CCOC(=O)Cc1nc2sc(S(N)(=O)=O)nn2c1Br", "786-0", "f"],
  ["CN1CCN(/C(N)=C(\\C#N)C(=O)Nc2ccccc2)CC1", "786-0", "f"],
  ["CCOC(=O)Nc1nn[nH]c1Cl", "786-0", "f"],
  ["COC(=O)C(Cc1ccccc1OC)NC(=O)C(CC(=O)OCc1ccccc1)NC(=O)OCc1ccccc1 (stereo not drawn) (Cbz-Asp(OBn)-[Phe(2-OMe)]-OMe; configuration not given here)", "786-0", "f"],
  ["O=[N+]([O-])C(C(Cl)=C(Cl)Cl)=C(n1cncn1)n1cncn1", "786-0", "f"],
  ["O=C1CSc2nc3ccccc3n2/C=N\\N1", "786-0", "f"],
  ["CCC(C)NC(=S)N/N=C(\\C)c1ccccn1 (stereo not drawn)", "786-0", "t"],
  ["Cc1ccc(-n2c(=S)[nH]c3ccc(Br)cc3c2=O)cc1", "786-0", "f"],
  ["COC(=O)C1CCC(=O)N1C(c1ccccc1)c1cc(OC)c(OC)c(OC)c1 (stereo not drawn)", "786-0", "f"],
  ["c1cc2c(cc1C(N1CCNCC1)N1CCNCC1)OCO2", "786-0", "f"],
  ["CC/C(=N\\NS(=O)(=O)c1ccccc1)c1ccccc1", "786-0", "f"],
  ["COC(=O)C1=C(C(=O)OC)C2(C)CCC(=O)C1O2 (stereo not drawn)", "786-0", "f"],
  ["CN(C)CCCNc1ccc([N+](=O)[O-])c2nc3ccccc3c(N)c12", "786-0", "t"],
  ["O=C(CC(C(=O)c1cccs1)c1ccc2c(c1)OCO2)c1ccc(Br)cc1 (stereo not drawn)", "786-0", "f"],
  ["Cc1cc2c(c(C(=O)NCC(=O)O)c1)Oc1c(cc(C)cc1C(=O)NCC(=O)O)S2", "786-0", "f"],
  ["CCOC(=O)c1sc2c(C(=O)OCC)n3cc(C)cc(C)c3c2c1O", "786-0", "f"],
  ["NC(CCC(=O)NC(CSC(=O)N(O)c1ccc(Cl)cc1)C(=O)NCC(=O)O)C(=O)O (stereo not drawn)", "786-0", "t"],
  ["C[C@]12CCC(=O)C(O)=C1CC[C@@H]1[C@@H]2CC[C@]2(C)C(=O)CC[C@@H]12 [FORMESTANE]", "786-0", "f"],
  ["N#CC(NCCc1ccccc1)c1ccccc1 (stereo not drawn)", "786-0", "f"],
  ["c1ccc(SC2CCSc3ccccc3C2Sc2ccccc2)cc1 (stereo not drawn)", "786-0", "f"]
]}
